- measured target: Cannabinoid receptor 1 (Homo sapiens, UniProt P21554)
- Sequence (P21554 whole entry): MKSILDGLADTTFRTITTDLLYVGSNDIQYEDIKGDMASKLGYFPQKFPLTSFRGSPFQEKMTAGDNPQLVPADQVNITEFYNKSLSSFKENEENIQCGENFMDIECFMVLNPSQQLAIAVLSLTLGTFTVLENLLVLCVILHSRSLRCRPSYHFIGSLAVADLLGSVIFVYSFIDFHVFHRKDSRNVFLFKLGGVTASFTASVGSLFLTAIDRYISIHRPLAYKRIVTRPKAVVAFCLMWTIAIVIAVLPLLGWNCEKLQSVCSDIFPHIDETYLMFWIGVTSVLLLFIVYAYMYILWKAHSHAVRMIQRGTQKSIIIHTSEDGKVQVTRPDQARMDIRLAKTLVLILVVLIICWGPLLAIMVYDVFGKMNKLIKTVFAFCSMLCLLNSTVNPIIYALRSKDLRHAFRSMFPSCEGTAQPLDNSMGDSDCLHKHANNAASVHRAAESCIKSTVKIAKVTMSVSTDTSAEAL
observable: pIC50
One number for each entry, as −log10 of the molar value.

# input Sample N#Cc1ccc(CCOC(=O)NC2CCN(CCCC(c3ccc(F)cc3)c3ccc(F)cc3)CC2)cc1 — what was its pIC50?
# output 5.22

====

- measured target: UniProtKB P0DMS8
- Sequence (P0DMS8 whole entry): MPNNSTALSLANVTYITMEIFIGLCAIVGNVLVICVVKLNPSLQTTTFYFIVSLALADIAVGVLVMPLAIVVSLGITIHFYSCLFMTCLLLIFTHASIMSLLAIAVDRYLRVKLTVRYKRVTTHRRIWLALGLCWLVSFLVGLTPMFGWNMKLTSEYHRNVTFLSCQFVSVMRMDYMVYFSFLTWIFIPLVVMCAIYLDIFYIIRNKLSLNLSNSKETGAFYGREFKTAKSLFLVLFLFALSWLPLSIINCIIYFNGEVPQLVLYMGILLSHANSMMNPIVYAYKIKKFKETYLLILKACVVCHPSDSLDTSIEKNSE
observable: IC50
Quick note: number first, unit second.

structure smiles | observable | val
O=C(OCc1cccc(Oc2ccccc2)c1)N1CCC2(CC1)C(=O)NCN2c1ccccc1 | IC50 | 1.51 µM

Report IC50 for each item below.
1. CCOc1ccc(CCNC(=O)N2CCN(CCCC(c3ccc(F)cc3)c3ccc(F)cc3)CC2)cc1
2. CCOc1ccc(CCOC(=O)N2CCN(CCCc3ccccc3)CC2)cc1
3. O=C(NCCCn1c(=O)[nH]c2ccccc21)OCc1cc2c(cc1Cl)OCO2
4. COc1ccc(CN2CCN(C(=O)CCn3cc(C)c4ccccc43)CC2)cc1OCc1ccccc1
5. N#Cc1ccc(CCOC(=O)N2CCN(CCCC(c3ccc(F)cc3)c3ccc(F)cc3)CC2)cc1
6. O=C(CCc1ccc(F)cc1)N1CCN(CCCC(c2ccc(F)cc2)c2ccc(F)cc2)CC1

# output
["2.46 µM", "4.18 µM", "3.33 µM", "3.73 µM", "3.48 µM", "5.08 µM"]

Batch request: IC50 for each of the following molecules.
1. O=C(OCc1cc2c(cc1Cl)OCO2)N1CCC(n2c(O)nc3ccccc32)CC1
2. O=C(OCCc1ccc(F)cc1)N1CCN(CCCC(c2ccc(F)cc2)c2ccc(F)cc2)CC1
3. COc1ccc(SCCC(=O)N2CCN(Cc3cccc(Oc4ccc(Cl)cc4)c3)CC2)cc1
4. N#Cc1ccc(CCOC(=O)NC2CCN(CCCC(c3ccc(F)cc3)c3ccc(F)cc3)CC2)cc1

# output
["1.78 µM", "4.21 µM", "3.75 µM", "5.98 µM"]

====

Give IC50 for every item shown.
- measured target: 5-hydroxytryptamine receptor 1A (Homo sapiens, UniProt P08908)
- Sequence (P08908 whole entry): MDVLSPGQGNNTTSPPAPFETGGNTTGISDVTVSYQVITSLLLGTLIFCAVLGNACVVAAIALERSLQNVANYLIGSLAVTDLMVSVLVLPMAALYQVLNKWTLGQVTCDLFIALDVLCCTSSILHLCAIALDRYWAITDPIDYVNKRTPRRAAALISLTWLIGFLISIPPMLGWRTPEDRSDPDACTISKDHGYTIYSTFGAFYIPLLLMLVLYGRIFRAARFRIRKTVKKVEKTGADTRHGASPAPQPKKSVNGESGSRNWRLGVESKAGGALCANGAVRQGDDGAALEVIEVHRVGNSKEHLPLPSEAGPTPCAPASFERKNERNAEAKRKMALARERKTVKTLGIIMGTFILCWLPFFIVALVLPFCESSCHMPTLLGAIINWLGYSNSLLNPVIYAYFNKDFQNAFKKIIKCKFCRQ
One number for each entry, in µM.

Consider the following illustrative entries.
structure smiles | IC50 [µM]
O=C(OCCc1ccc(F)cc1)N1CCN(CCCC(c2ccc(F)cc2)c2ccc(F)cc2)CC1 | 1.14
N#Cc1ccc(CCOC(=O)NC2CCN(CCCC(c3ccc(F)cc3)c3ccc(F)cc3)CC2)cc1 | 0.985
O=C(OCc1cccc(Oc2ccccc2)c1)N1CCC2(CC1)C(=O)NCN2c1ccccc1 | 2.08
O=C(CCc1ccc(F)cc1)N1CCN(CCCC(c2ccc(F)cc2)c2ccc(F)cc2)CC1 | 1.11
N#Cc1ccc(CCOC(=O)N2CCN(CCCc3ccccc3)CC2)cc1 | 1.57
O=C(OCc1cc2c(cc1Cl)OCO2)N1CCC(n2c(O)nc3ccccc32)CC1 | 4.65

# input Reported IC50, molecule N#Cc1ccc(CCOC(=O)N2CCN(CCCC(c3ccc(F)cc3)c3ccc(F)cc3)CC2)cc1 : ____
# output 1.02
